- assay explanation: Clearance in Han Wistar rat at 1 mg/kg, iv administered as bolus dose or 2 mg/kg, po
- Assay type: ADME, organism-based
- test parameters: in vivo
Recorded clearance values for a group of compounds are listed next.
Number plus unit, in that order.

C[C@H](Nc1c(C(N)=O)nnc2ccc(-c3ccc(OCCCN(C)C)nc3)cc12)C1CCOCC1 : 25 mL/min/kg

Moving on to the next compound.
Reported clearance for "CNC(=O)c1nnc2ccc(-c3ccc(OCCCN(C)C)nc3)cc2c1N[C@@H](C)C1CCOCC1" : what is it?
7.8 mL/min/kg

---

- assay explanation: in vitro
- test parameters: human, liver microsomes
Recorded microsomal CLint at 0.5 h, 1 µM values for a group of compounds are listed next.
Numeric only. Scale: µL/min/mg

As a guide, the following entries are already answered.
Cc1cn(C)nc1[C@H](C)Nc1c(C(N)=O)nnc2ccc(-c3ccc(OCCCN4CCCC4)nc3)cc12 : 40
C[C@H](Nc1c(C(N)=O)nnc2ccc(-c3ccc(OCCCN(C)C)nc3)cc12)C1CCOCC1 : 28

Reported microsomal CLint at 0.5 h, 1 µM for "Cc1cn(C)nc1[C@H](C)Nc1c(C(N)=O)nnc2ccc(-c3ccc(OCCCN(C)C)nc3)cc12" : what is it?
27

Similarly, "C[C@H](Nc1c(C(N)=O)nnc2ccc(-c3ccc(OCCCN(C)C)nc3)cc12)c1ccn(C)n1" ?
10

---

- assay explanation: in vitro
- test parameters: human, liver microsomes
# cutoff 30 µL/min/mg applies to microsomal CLint at 0.5 h, 1 µM; >= gives Y, < gives N

Illustrative cases are given below, each with its answer.
C[C@H](Nc1c(C(N)=O)nnc2ccc(-c3ccc(OCCCN4CCCC4)nc3)cc12)C1CCOCC1 : N
CNC(=O)c1nnc2ccc(-c3ccc(OCCCN(C)C)nc3)cc2c1N[C@@H](C)C1CCOCC1 : N
CNC(=O)c1nnc2ccc(-c3ccc(OCCN(C)C)nc3)cc2c1N[C@@H](C)C1CCOCC1 : N

Would you say "CNC(=O)c1nnc2ccc(-c3ccc(COC)nc3)cc2c1N[C@@H](C)C1CCOCC1" shows microsomal CLint at 0.5 h, 1 µM at minimum 30 µL/min/mg?
Y

Similarly, "C[C@H](Nc1c(C(N)=O)nnc2ccc(-c3ccc(NCCN(C)C)nc3)cc12)C1CCOCC1" ?
N

---

- assay explanation: physchem
- test parameters: phosphate buffer, pH 7.4
Recorded solubility thermodynamic at 24 h values for a group of compounds are listed next.
Numeric only. Scale: µM

CNC(=O)c1nnc2ccc(-c3ccc(OCCN(C)C)nc3)cc2c1N[C@@H](C)C1CCOCC1 : 990
C[C@H](Nc1c(C(N)=O)nnc2ccc(-c3ccc(OCCCN(C)C)nc3)cc12)c1ccn(C)n1 : 65

Moving on to the next compound.
Reported solubility thermodynamic at 24 h for "C[C@H](Nc1c(C(N)=O)nnc2ccc(-c3ccc(OCCCN4CCCC4)nc3)cc12)c1ccn(C)n1" : what is it?
490

---

- assay explanation: physchem
- test parameters: phosphate buffer, pH 7.4
Recorded solubility thermodynamic at 24 h values for a group of compounds are listed next.
Numeric only. Scale: µM

Reported solubility thermodynamic at 24 h for "CNC(=O)c1nnc2ccc(-c3ccc(COC)nc3)cc2c1N[C@@H](C)C1CCOCC1" : what is it?
34

Similarly, "COCc1ccc(-c2ccc3nnc(C(N)=O)c(N[C@@H](C)c4nn(C)cc4C)c3c2)cn1" ?
8

Similarly, "C[C@H](Nc1c(C(N)=O)nnc2ccc(-c3ccc(OCCN(C)C)nc3)cc12)c1ccn(C)n1" ?
910

Similarly, "COCc1ccc(-c2ccc3nnc(C(N)=O)c(N[C@@H](C)c4ccn(C)n4)c3c2)cn1" ?
76
